// provenance: patent US20110294738A1

Molecular target: PTHR1 receptor
Sequence (P25961 whole entry): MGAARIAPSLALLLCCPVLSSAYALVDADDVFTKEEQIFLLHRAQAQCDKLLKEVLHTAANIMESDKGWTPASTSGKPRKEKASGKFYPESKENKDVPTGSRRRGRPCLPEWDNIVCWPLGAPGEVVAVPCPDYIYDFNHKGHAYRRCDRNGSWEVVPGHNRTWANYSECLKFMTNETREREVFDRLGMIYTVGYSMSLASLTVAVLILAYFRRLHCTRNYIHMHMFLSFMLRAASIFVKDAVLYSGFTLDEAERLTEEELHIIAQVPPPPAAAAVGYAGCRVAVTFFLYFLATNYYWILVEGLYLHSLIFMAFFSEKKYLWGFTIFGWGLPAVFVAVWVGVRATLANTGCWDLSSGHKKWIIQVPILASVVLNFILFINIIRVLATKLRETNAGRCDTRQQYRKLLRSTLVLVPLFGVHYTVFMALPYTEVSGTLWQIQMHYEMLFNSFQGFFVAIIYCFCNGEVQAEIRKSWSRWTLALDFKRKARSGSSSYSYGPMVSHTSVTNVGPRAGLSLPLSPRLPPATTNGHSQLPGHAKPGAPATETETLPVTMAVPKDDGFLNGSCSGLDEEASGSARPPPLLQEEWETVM
* marks the point of attachment. Palmitoyl = CCCCCCCCCCCCCCCC(=O)*
// reported Fold Shift of EC50 per item
# value in fold; strip the unit string

binder	Fold Shift of EC50, fold
Palmitoyl-NGEVQAEIKKSWSRWT-NH2 (SMILES CCCCCCCCCCCCCCCC(=O)N[C@@H](CC(N)=O)C(=O)NCC(=O)N[C@@H](CCC(=O)O)C(=O)N[C@H](C(=O)N[C@@H](CCC(N)=O)C(=O)N[C@@H](C)C(=O)N[C@@H](CCC(=O)O)C(=O)N[C@H](C(=O)N[C@@H](CCCCN)C(=O)N[C@@H](CCCCN)C(=O)N[C@@H](CO)C(=O)N[C@@H](Cc1c[nH]c2ccccc12)C(=O)N[C@@H](CO)C(=O)N[C@@H](CCCNC(=N)N)C(=O)N[C@@H](Cc1c[nH]c2ccccc12)C(=O)N[C@H](C(N)=O)[C@@H](C)O)[C@@H](C)CC)C(C)C) [Compound 101]	1.2

We now examine a further binder.
[in] Record request: Fold Shift of EC50 value, item Palmitoyl-RRLHSTRNYIHMH-NH2 (SMILES CCCCCCCCCCCCCCCC(=O)N[C@@H](CCCNC(=N)N)C(=O)N[C@@H](CCCNC(=N)N)C(=O)N[C@@H](CC(C)C)C(=O)N[C@@H](Cc1c[nH]cn1)C(=O)N[C@@H](CO)C(=O)N[C@H](C(=O)N[C@@H](CCCNC(=N)N)C(=O)N[C@@H](CC(N)=O)C(=O)N[C@@H](Cc1ccc(O)cc1)C(=O)N[C@H](C(=O)N[C@@H](Cc1c[nH]cn1)C(=O)N[C@@H](CCSC)C(=O)N[C@@H](Cc1c[nH]cn1)C(N)=O)[C@@H](C)CC)[C@@H](C)O) [Compound 1]
[out] 1.3
